Biological target: human CB1 receptor (hCB1) (Homo sapiens, UniProt P21554)
Sequence (P21554 whole entry): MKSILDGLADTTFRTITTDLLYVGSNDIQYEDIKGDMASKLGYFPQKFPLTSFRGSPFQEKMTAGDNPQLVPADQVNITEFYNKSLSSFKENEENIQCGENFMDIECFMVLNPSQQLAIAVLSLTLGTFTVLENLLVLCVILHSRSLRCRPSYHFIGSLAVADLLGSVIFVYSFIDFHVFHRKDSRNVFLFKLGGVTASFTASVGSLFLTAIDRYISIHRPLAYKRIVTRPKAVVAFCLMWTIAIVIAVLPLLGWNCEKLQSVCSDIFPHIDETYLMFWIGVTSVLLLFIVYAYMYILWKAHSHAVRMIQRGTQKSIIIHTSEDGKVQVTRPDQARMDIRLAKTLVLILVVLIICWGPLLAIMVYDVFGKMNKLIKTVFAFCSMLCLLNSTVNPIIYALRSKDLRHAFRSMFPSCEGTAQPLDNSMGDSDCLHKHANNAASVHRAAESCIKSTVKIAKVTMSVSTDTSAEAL
Assay: cAMP assay (LANCE TR-FRET) in CHO-K1 cells expressing hCB1
Assay type: cell-based
Conditions: intracellular cAMP, NKH-477 prestimulated, + agonist, − inverse agonist
property: hCB1 EC50 range

>>> df
                                   molecule                                       tgt  measured_result
0  CNC(=O)[C@@H](NC(=O)c1ccc2c(c1)N(S(=O)(=O)c1ccc(F)cc1)CCC(C)(C)S2)C(C)(C)C [Example 103]  human CB1 receptor (hCB1) (Homo sapiens, UniProt P21554)               −E
1  CC1(C)CCN(S(=O)(=O)c2ccc(F)cc2)c2cc(C(=O)N3CCOCC3)ccc2S1 [Example 100]  human CB1 receptor (hCB1) (Homo sapiens, UniProt P21554)               −E
2  COCCCNC(=O)c1ccc2c(c1)N(S(=O)(=O)c1ccc(F)cc1)CCS2 [Example 49]  human CB1 receptor (hCB1) (Homo sapiens, UniProt P21554)               +E
3  CC(C)(C)NC(=O)c1ccc2c(c1)N(S(=O)(=O)c1ccc(F)cc1)CCS2 [Example 47]  human CB1 receptor (hCB1) (Homo sapiens, UniProt P21554)               +E
4  CC(C)(C)NC(=O)c1ccc2c(c1)N(C(=O)c1ccc(F)cc1)CCS2 [Example 6]  human CB1 receptor (hCB1) (Homo sapiens, UniProt P21554)               −E

Ask: Name the reported hCB1 EC50 range value associated with the molecule O=C(NC12CC3CC(CC(C3)C1)C2)c1ccc2c(c1)N(C(=O)c1ccc(F)cc1)CCS2 [Example 22]
Reply: −E

Data credit: patent US7960376B2
